Origin of the recorded values: ChEMBL document CHEMBL1255305

- assay_comment: Inhibition of Bocillin FL binding to PBP2 in Pseudomonas aeruginosa PAO1 membranes
Below, each of the compounds is paired with its reported IC50 value.
experimental_endpoint: IC50

> print(dat)
                                   compound  meas.value
1  C[C@H]1[C@H](NC(=O)/C(=N\OC(C)(C)C(=O)O)c2csc(N)n2)C(=O)N1S(=O)(=O)O    16 µg/mL
2  C[C@@H](O)[C@H]1C(=O)N2C(C(=O)O)=C(SCCNC=N)C[C@H]12 [IMIPENEM ANHYDROUS]   0.1 µg/mL
3  CC(C)(O/N=C(\C(=O)N[C@@H]1C(=O)N2C(C(=O)[O-])=C(C[n+]3ccccc3)CS[C@H]12)c1csc(N)n1)C(=O)O  > 32 µg/mL
4  C[C@@H](O)[C@H]1C(=O)N2C(C(=O)O)=C(S[C@@H]3CN[C@H](CNS(N)(=O)=O)C3)[C@H](C)[C@H]12  0.06 µg/mL
5  C[C@@H](O)[C@H]1C(=O)N2C(C(=O)O)=C(S[C@@H]3CN[C@H](C(=O)N(C)C)C3)[C@H](C)[C@H]12  0.05 µg/mL
